Values were extracted from ChEMBL document CHEMBL1201862.

- Tested on: NCI/ADR-RES
- assay details: NCI tumour cell line growth inhibition, 48 h
Activity calls are given as the source filed them. Rule as the data show it: active = GI50 up to about 1.1 µM and inactive = higher.
recorded metric: GI50

Here is how some compounds turned out for GI50.
> print(dat)
                                 cpd.smiles  target.or.test.system  recorded.metric           meas.value
1  C[Si](C)(OCCS(=O)(=O)O)OC(=C1S(=O)(=O)OCCOS1(=O)=O)c1cccc2ccccc12            NCI/ADR-RES             GI50  > 100 µM (inactive)
2  O=C(NCc1ccccc1)c1cc2ccccc2o/c1=N\c1cccc(C(F)(F)F)c1            NCI/ADR-RES             GI50   47.1 µM (inactive)
3  O=C(N/N=C/C=C/c1ccccc1)c1ccccc1Nc1ccccc1C(=O)N/N=C/C=C/c1ccccc1            NCI/ADR-RES             GI50  > 100 µM (inactive)
4  O=C1CC(=O)NC(NN2C(=O)/C(=C/c3ccccc3)N=C2c2ccccc2)=N1            NCI/ADR-RES             GI50  > 100 µM (inactive)

Now examine the next entry.
Query: GI50; subject: "CCOC(=O)c1ccc(Nc2cnc3ccc(C(F)(F)F)cc3n2)cc1"
12.8 µM (inactive)

---

- System: NCI-H460
- assay details: NCI tumour cell line growth inhibition, 48 h
Calls of active or inactive are those of the source. No stated cut-off is given here; in the data, active = GI50 up to about 1.1 µM and inactive = higher.
Parameter call: string, one of active, inactive

Tell me the recorded outcome of this test for "NC(=O)[N+](=CC(=S)Nc1ccccc1Cl)C(N)=O" .
inactive

Now try "O=C(NCCN1C(=O)CN=C(c2ccc(Cl)cc2)c2cc(Cl)ccc21)OCc1ccccc1" .
inactive

Same read-out for "O=c1[nH]nc(Cc2ccccc2)n1Nc1ccccc1" ?
inactive

Same for "Cc1c(C)n(COCCO)c2ncnc(N)c12"
inactive

Same question, "CCN(CC)C(=O)Cc1c(C(=O)N(CC)CC)c(=O)nc2sccn12" this time
inactive

Same question for C=C(C(=O)OC)N1C(=O)CC(C)C1=O (stereo unspecified) please.
inactive

Cool, now COc1cc(C2C3=C(COC3=O)Oc3cc4c(cc32)OCO4)cc(OC)c1OC (stereo unspecified)
active

---

- Test system: OVCAR-4
- assay details: NCI tumour cell line growth inhibition, 48 h
Activity calls are given as the source filed them. Rule as the data show it: active = GI50 up to about 1.1 µM and inactive = higher.
Use one of these outcomes when replying: active, inactive

> print(dat)
                                   molecule  class.name
1  C/C(=C\c1csc(C)n1)[C@@H]1C[C@@H]2O[C@@H]2CCC[C@H](C)[C@H](O)[C@@H](C)C(=O)C(C)(C)[C@@H](O)CC(=O)O1      active
2              Cc1ccc(CSC(=N)Nc2ccccc2)cc1C    inactive
3  CC(C)(C)OC(=O)N1CCC[C@H]1CSC[C@@H]1CCCN1C(=O)OC(C)(C)C    inactive
4          O=c1[nH]nc(Cc2ccccc2)n1Nc1ccccc1    inactive

What classification did CCOP(=O)(C[S+](C)[O-])O[C@@H]1C[C@H](C)CC[C@H]1C(C)C (stereo partly specified) end up with in this test?
inactive

And then COc1c(C(CC(C)C)OC(C)=O)ccc2c1C(=O)OCc1cc(C)cc(O)c1O2 (stereo unspecified) , what is it?
inactive

Repeat for the following molecule: C=C1CCC2[C@@H](CCC3[C@]2(C)CCC[C@]3(C)C(=O)OC)[C@@H]1CC=O (stereo partly specified)
inactive

Another: COC(=O)C1=Cc2cn(S(=O)(=O)c3ccc(C)cc3)c3cccc(c23)C(C=C(C)C)N1C(C)=O (stereo unspecified)
inactive

Same read-out for CN1C(=O)CN2C(Cl)(Cl)C2(c2ccccc2F)c2cc([N+](=O)[O-])ccc21 (stereo unspecified) ?
inactive

Request: "O=C(C(=O)n1ccc2ccccc21)n1ccc2ccccc21"
inactive

---

- Tested on: A549
- assay details: NCI tumour cell line growth inhibition, 48 h
Activity calls are given as the source filed them. Cut-off read from the data, not from the text of the source: active = GI50 up to about 1.1 µM and inactive = higher.
Give your call using only these classes: active, inactive

Some solved entries appear below for comparison.
compound	class name
Clc1ccc(Cl)c(NNc2cc(Cl)ccc2Cl)c1	inactive
C=Cc1ccc(C)[n+](C[Si](C)(C)O[Si](C)(C)C)c1	inactive
O=C(N/N=C/C=C/c1ccccc1)c1ccccc1Nc1ccccc1C(=O)N/N=C/C=C/c1ccccc1	inactive

Give the logged outcome of this assay for the following compound: COc1cc(C2C3=C(COC3=O)Oc3cc4c(cc32)OCO4)cc(OC)c1OC (stereo not given)
active

Try this compound next: COC(=O)C1(Cc2ccc3c(c2)CCC3)Cc2ccccc2C1O (stereo not given)
inactive

Also need OCC1O[C@H](O[C@@H]2CCCN3CC(O)C(O)[C@@H]23)C(O)C(O)C1O (stereo not given in full) , thanks.
inactive

Also "CN(C)c1cccc(-c2cc(O)c3cc4c(cc3n2)OCO4)c1" , if possible.
active

---

- Tested on: RXF 393
- assay details: NCI tumour cell line growth inhibition, 48 h
Calls of active or inactive are those of the source. No stated cut-off is given here; in the data, active = GI50 up to about 1.1 µM and inactive = higher.
Pick one: active, inactive

Observe how each entry below is paired with its result.
> print(dat)
                                   compound  target.or.test.system  class.name
1  CCOC(=O)NNC1(SC)NC(=O)c2c(cc(Cl)oc2=O)O1 (stereo not given)                RXF 393    inactive
2  O=C1c2cc([N+](=O)[O-])cnc2S(=O)(=O)N1c1ccc(Oc2ccccc2)cc1                RXF 393    inactive
3  Clc1cccc(Cl)c1C1ON=C(c2ccccc2)N1C12CC3CC(CC(C3)C1)C2 (stereo not given)                RXF 393    inactive

Please find the next compound below.
Can you look up the reported call for CCCCCCCCCC1CC(=O)NCC(=O)NC(C(C)C)C(=O)NC(CC(C)C)C(=O)NC(C)C(=O)NC(C(C)C)C(=O)O1 (stereo not given) for me?
inactive

---

- System: SK-MEL-28
- assay details: NCI tumour cell line growth inhibition, 48 h
Active and inactive are the calls of the source. Rule as the data show it: active = GI50 up to about 1.1 µM and inactive = higher.
recorded metric: GI50

> print(dat)
                                   compound  target.or.test.system  recorded.metric           meas.value
1  CCc1nn(S(=O)(=O)c2ccc(C)cc2)c2c1CS(=O)(=O)CC2              SK-MEL-28             GI50  > 100 µM (inactive)

Okay, now this compound:
Returns the measured GI50 for the input compound. Input: "Nc1nc(OCC2CCCCC2)c2nc[nH]c2n1"
26.2 µM (inactive)

---

- Tested on: SF-539
- assay details: NCI tumour cell line growth inhibition, 48 h
The source made the active and inactive calls. No stated cut-off is given here; in the data, active = GI50 up to about 1.1 µM and inactive = higher.
Listed compounds paired with reported GI50

Consider the worked cases shown below.
> print(dat)
                                   compound           meas.value
1           Fc1cccc(F)c1C(Nc1nncs1)Nc1nncs1     49 µM (inactive)
2  COc1cc(C2c3cc4c(cc3[C@@H](Nc3ccc(C(=O)O)cc3)C3COC(=O)[C@H]23)OCO4)cc(OC)c1O (stereo not given in full)   6.56 µM (inactive)
3  Cc1cnc2c(c1)C(=O)N(c1ccc(Oc3ccccc3)cc1)S2(=O)=O  > 100 µM (inactive)

For the compound shown here, "Cc1[nH]c(O)nc1C(=O)c1ccc(-n2ccnc2)cc1" , give the reported GI50.
> 100 µM (inactive)

Entry "CCNC1=Nc2ccccc2-n2c(nn3nc4ccccc4c23)N1CC" please
> 100 µM (inactive)

Now try "CCN(CC)C(=O)Cc1c(C(=O)N(CC)CC)c(=O)nc2sccn12" .
> 100 µM (inactive)

Also check COC(=O)C1(Cc2ccc3c(c2)CCC3)Cc2ccccc2C1O (stereo not given)
17.5 µM (inactive)

Item: "COc1ccc2c(CCNC(=O)/C=C/c3ccccc3)c(C(C)=O)[nH]c2c1[N+](=O)[O-]"
9.86 µM (inactive)

Lookup "S=c1[nH]c(=S)c2cc(Sc3ccc4[nH]c(=S)[nH]c(=S)c4c3)ccc2[nH]1"
30.2 µM (inactive)

Moving on to "Oc1c(/N=N/c2ccccc2)c2ccccc2c2ccc3ccccc3c12"
34.5 µM (inactive)

---

- System: MCF7
- assay details: NCI tumour cell line growth inhibition, 48 h
Calls of active or inactive are those of the source. Rule as the data show it: active = GI50 up to about 1.1 µM and inactive = higher.
# GI50 per entry

These solved cases illustrate the format of a correct answer.
> print(dat)
                                    compound  recorded.metric           meas.value
 1  CCOC(=O)NNC1(SC)NC(=O)c2c(cc(Cl)oc2=O)O1 (stereo unspecified)             GI50   1.91 µM (inactive)
 2                      CNC(=O)N(C)/N=N/CCCl             GI50  > 100 µM (inactive)
 3  O=C(NCc1ccccc1)c1cc2ccccc2o/c1=N\c1cccc(C(F)(F)F)c1             GI50   42.5 µM (inactive)
 4  CSc1c(C#N)c(O)n(-c2ccc(Cl)cc2)c(=O)c1C(C)=O             GI50   52.4 µM (inactive)
 5             CCc1ccccc1NC(=O)/C=C/c1ccccc1             GI50  > 100 µM (inactive)
 6  C[Si](C)(OCCS(=O)(=O)O)OC(=C1S(=O)(=O)OCCOS1(=O)=O)c1cccc2ccccc12             GI50   67.6 µM (inactive)
 7  CO/N=C1\CCC2(O)C3Cc4ccc(O)c5c4C2(CCN3CC2CC2)[C@H]1O5 (stereo partly specified)             GI50  > 100 µM (inactive)
 8  COC(=O)C1=C(C(=O)OC)C2OC1c1cc3ccccc3cc12             GI50   8.89 µM (inactive)
 9  CCCCCCCCCCCCCCCCOP(=O)(O)OCC(NC(C)=O)C(=O)O (stereo unspecified)             GI50  > 100 µM (inactive)
10  COc1cc(C2SCC(=O)N2c2ccc(NC(C)=O)cc2)cc(OC)c1OC (stereo unspecified)             GI50   51.3 µM (inactive)

Let us move to another entry and its GI50.
If you can, please state the reported GI50 value of NC1C/C(=N\O)c2c(I)sc(I)c21 (stereo unspecified) .
7.31 µM (inactive)
